In this section, each of the compounds is paired with its reported Papp at 18 hours, 50 µM.
# Assay comment: PAMPA (parallel artificial membrane permeability assay)
# Format: in vitro ADME
# Condition notes: PAMPA; membrane permeation rate (Pe); 50 mM MOPSO buffer pH 6.5 with 5.0% glycocholic acid, 37° C., 18 hours; read-out: iPAMPA Pe
Positions of bridges follow the written chain, without caps; N, C: chain ends. Non-standard residues stand in square brackets, D forms with d. Residues, ends and D or L forms follow the SMILES beside them. *: point of attachment. NMeF = CN[C@@H](Cc1ccccc1)C(=O)O; NMeI = CC[C@H](C)[C@H](NC)C(=O)O; NMeL = CN[C@@H](CC(C)C)C(=O)O; NMeV = CN[C@H](C(=O)O)C(C)C; NMeA = CN[C@@H](C)C(=O)O; Piperidide = C1CCN(*)CC1; Sar = CNCC(=O)O; tBu = CC(C)(C)*
Recorded metric: Papp at 18 hours, 50 µM (×10⁻⁶ cm/s)

{"Compound": "CC[C@H](C)[C@@H]1NC(=O)[C@H](C)N(C)C(=O)[C@H](C)N(C)C(=O)[C@H]([C@@H](C)O)NC(=O)[C@H](CC(C)C)N(C)C(=O)[C@H](CC(C)C)NC(=O)[C@H](Cc2ccccc2)N(C)C(=O)[C@@H](C)NC(=O)C[C@@H](C(=O)N(C)[C@@H](Cc2ccccc2)C(=O)N[C@@H](C)C(=O)N2CCCCC2)NC(=O)[C@H](C(C)C)N(C)C(=O)[C@H](Cc2ccccc2)N(C)C1=O [DP-180] ([dA][NMeF]L[NMeL]T[NMeA][NMeA]I[NMeF][NMeV]D[NMeF]A-Piperidide; lactam N-11)", "Observed measurement": 23}
{"Compound": "CC[C@H](C)[C@H]1C(=O)N(C)[C@@H](C(C)C)C(=O)N(C)CC(=O)N[C@@H]([C@@H](C)O)C(=O)N[C@H](C(=O)N2CCCCC2)CC(=O)N[C@H](C)C(=O)N(C)[C@@H](C)C(=O)N(C)[C@@H](CC(C)C)C(=O)N[C@@H](CC(C)C)C(=O)N(C)[C@@H](Cc2ccccc2)C(=O)N[C@@H](Cc2ccccc2)C(=O)N1C [DP-98] ([dA][NMeA][NMeL]L[NMeF]F[NMeI][NMeV][Sar]TD-Piperidide; lactam N-11)", "Observed measurement": 26}
{"Compound": "CC(C)C[C@H]1C(=O)N[C@@H](COC(C)(C)C)C(=O)N[C@H](C(=O)N2CCCCC2)CC(=O)N[C@@H](C)C(=O)N(C)[C@@H](Cc2ccccc2)C(=O)N(C)CC(=O)N(C)[C@@H](Cc2ccccc2)C(=O)N[C@@H]([C@@H](C)O)C(=O)N1C [DP-711] (A[NMeF][Sar][NMeF]T[NMeL]S(tBu)D-Piperidide; lactam N-8)", "Observed measurement": 29}
